system: FGFR1 (UniProt P11362)
Sequence (P11362 whole entry, looked up): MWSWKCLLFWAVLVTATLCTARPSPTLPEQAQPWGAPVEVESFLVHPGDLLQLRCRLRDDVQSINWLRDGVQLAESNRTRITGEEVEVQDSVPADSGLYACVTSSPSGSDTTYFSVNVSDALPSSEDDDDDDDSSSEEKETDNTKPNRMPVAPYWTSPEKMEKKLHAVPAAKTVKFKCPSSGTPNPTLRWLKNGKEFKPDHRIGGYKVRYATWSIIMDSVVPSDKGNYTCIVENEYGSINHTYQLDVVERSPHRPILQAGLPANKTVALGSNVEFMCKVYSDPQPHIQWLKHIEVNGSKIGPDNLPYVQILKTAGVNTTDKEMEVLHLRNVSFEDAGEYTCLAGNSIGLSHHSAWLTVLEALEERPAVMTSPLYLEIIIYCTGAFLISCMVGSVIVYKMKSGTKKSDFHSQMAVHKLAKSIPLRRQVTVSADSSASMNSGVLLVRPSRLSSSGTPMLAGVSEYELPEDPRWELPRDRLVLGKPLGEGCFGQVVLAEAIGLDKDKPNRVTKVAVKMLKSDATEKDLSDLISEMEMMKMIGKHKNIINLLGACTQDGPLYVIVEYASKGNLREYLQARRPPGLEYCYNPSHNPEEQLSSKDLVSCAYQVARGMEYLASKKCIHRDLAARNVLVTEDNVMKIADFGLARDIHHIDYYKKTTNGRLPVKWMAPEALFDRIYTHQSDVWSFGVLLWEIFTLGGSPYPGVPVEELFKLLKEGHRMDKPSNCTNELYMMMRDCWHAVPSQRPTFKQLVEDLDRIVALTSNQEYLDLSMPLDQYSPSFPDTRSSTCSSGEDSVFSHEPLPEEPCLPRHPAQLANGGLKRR
protocol-details: phosphorylation enrichment, bacterial display (enrichment ratio); higher = better substrate or ligand; peptides without Tyr show the background
Records here are stratified by phosphorylation enrichment; strata: one = under 0.5, two = from 0.5 up to 0.7, three = 0.7 and over

chain-sequence	label
EQKKYYNAMKN [SCN5A_Y1495_K1500N]	one
SNKLYYQLEQE [PDPR_Y110]	three
FTAVGYHKHIT [NOMO1_Y1137]	one
LNPLIYSLRNK [OR5R1_Y290]	three
VMICAYLLHRG [PTEN_Y138]	two
RGDSAYHSQRH [ERBB3_Y1132]	one
GNKENYGLPQP [BUB1_Y538]	one
VLRQVYVDFEG [KMT2B_Y1707_R1705Q]	three
KKHFSYAWPFF [BRDT_Y291_YF]	two
QMVRMYASSFM [AVPR2_Y124_G122R_YF]	two
FEEDSYSHIMA [FDPS_Y388_YF]	three
TGSFTCEAVEL [MTMR14_Y462_Y462C]	two
HNVAIYEGYAL [ACTC1_Y168_P166A]	three
GDKKAYVRLAP [RPL23A_Y137_E133D]	two
NPETCYQRLKK [TK2_Y190]	one
HNLDFYKMTTN [FGFR3_Y648_K650M_YF]	three

====

system: FGFR3 (UniProt P22607)
Sequence (P22607 whole entry, looked up): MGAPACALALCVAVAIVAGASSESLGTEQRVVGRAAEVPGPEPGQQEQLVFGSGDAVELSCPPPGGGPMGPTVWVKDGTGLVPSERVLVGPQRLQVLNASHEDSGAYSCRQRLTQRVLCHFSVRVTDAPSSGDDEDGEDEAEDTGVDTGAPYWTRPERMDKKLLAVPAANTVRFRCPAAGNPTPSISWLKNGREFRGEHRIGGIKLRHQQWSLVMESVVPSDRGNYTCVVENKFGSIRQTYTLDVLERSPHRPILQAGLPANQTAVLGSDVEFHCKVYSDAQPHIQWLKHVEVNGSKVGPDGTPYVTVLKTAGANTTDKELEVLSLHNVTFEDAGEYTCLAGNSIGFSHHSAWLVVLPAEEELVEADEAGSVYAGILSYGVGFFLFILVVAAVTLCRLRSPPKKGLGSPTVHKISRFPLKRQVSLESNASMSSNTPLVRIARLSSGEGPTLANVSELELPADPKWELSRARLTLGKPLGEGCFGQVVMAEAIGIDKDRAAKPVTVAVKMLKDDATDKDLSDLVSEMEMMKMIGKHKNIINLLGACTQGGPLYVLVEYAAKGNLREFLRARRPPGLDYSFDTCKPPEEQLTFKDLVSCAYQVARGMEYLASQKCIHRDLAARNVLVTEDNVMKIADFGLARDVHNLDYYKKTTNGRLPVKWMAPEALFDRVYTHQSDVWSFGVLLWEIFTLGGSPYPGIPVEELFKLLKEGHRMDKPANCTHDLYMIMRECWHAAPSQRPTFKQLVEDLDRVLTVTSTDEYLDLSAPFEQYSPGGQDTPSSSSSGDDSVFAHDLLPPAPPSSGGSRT
protocol-details: phosphorylation enrichment, bacterial display (enrichment ratio); higher = better substrate or ligand; peptides without Tyr show the background

chain-sequence	phosphorylation enrichment
QGIFGYHHHMQ [UFSP2_Y287_Y290H_YF]	0.792
MGHVNYGAYIN [GLB1_Y485_R482H]	0.444
ILGRTYYVNHE [NEDD4_Y627]	0.682
FEEDSYSHIMA [FDPS_Y388_YF]	1.01
PECEWYKNGVK [TTN_Y2112]	1.19
RTCSSYTIEKI [PARP15_Y520_A521T]	1.18
SHMVDYQPYRK [TEX37_Y25]	0.505
PKGTGYIKTES [STAT1_Y701_L706S]	0.487
FQEPVYSVAFS [TBL1X_Y509_H504Y_YF]	3.49
VGTKRYRAPEV [ACVRL1_Y375_M376R]	0.363
KKHFSYAWPFF [BRDT_Y291_YF]	0.653
MEIHAYRKLSE [LMNA_Y376_L380S]	0.495
NKYTTYLPWLP [C9orf24_Y126_R129W]	2.25
EWQQTYTFDSG [JUP_Y20_YF]	1.02
YFVVEYRDQKP [MUC17_Y4332]	12.1
TETGRYEILTE	0.427
CRERPYGGGGG [FUS_Y526_R521C]	0.468
LARDIYKNDYY [ROS1_Y2110]	2.19
CPASVYTKRCS [CPT2_Y508_R503C]	0.441
IRCQGYSHRIL [MYO3B_Y993_R990C]	0.506
KDQGGYAMHQD [MAPT_Y29_T30A]	0.574
KKLHKYNTQFQ [PIK3R1_Y452_E451K]	1.13
KDHRDYKFQPR [SOX9_Y172_P170R_YF]	0.471

====

system: SHP2-C SH2;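 note: peptide library displayed on the E. coli surface as eCPX fusions, selected cells deep-sequenced, score is each peptide's frequency after selection divided by its frequency in the input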
protocol-details: SH2 binding enrichment of the phosphorylated peptide, bacterial display (enrichment ratio); higher = better substrate or ligand; peptides without Tyr show the background
experimental-readout: SH2 binding enrichment

chain-sequence	reported-result
SVVVPYEAPEV [TP53_Y220_P222A]	0.808
NTGLDYIKFTW [HRH1_Y386]	0.811
TVLWQYTGTRP [UGT1A1_Y337_R336Q]	0.793
VCRHNYGVVES [HLA-DRB1_Y112_Y107V]	0.801
GIVEDYRPPFF [ACVRL1_Y421_YF]	0.616
DENWFYTRAAS [RPS19_Y54]	0.816
RGDCTYAPLLG [AR_Y269_M268T]	0.594
QPGTDYKIYRY [FN1_Y1970_L1974R]	0.791
WPLKWYAPECI [ZAP70_Y506]	0.817
MGCVNYGAFIN [GLB1_Y485_R482C_YF]	0.793
DVMDLYKTLRG [NR3C1_Y30_F29L]	0.789
KNKELYSDPFD [PDE10A_Y300_L303P]	0.805
